- assay_protocol: Volume of distribution in human
- Format: ADME, organism-based
- measurement_context: in vivo, read-out: Vc
reported_metric: Vd (L)
Numbers only; they are read as L.

// Vd value for CC(C)(O/N=C(\C(=O)N[C@@H]1C(=O)N2C(C(=O)[O-])=C(C[n+]3ccccc3)CS[C@H]12)c1csc(N)n1)C(=O)O [CEFTAZIDIME] : 1.4

###

- assay_protocol: Elimination rate constant in mouse
- Type: ADME, organism-based
- measurement_context: in vivo
reported_metric: k el (s⁻¹)
Give the quantity in s⁻¹, number only.

Looking up CC(C)(O/N=C(\C(=O)N[C@@H]1C(=O)N2C(C(=O)[O-])=C(C[n+]3ccccc3)CS[C@H]12)c1csc(N)n1)C(=O)O , I see its k el listed as 0.000544
